- Test system: U251
- Condition details: read-out: 50% lethal concentration (LC50); U251, CNS
Quick reference for CC50 among some compounds

Compound	CC50
C=C1CCC2C3(C)COC(c4cn(-c5ccccc5)nc4-c4ccccc4)OC3CCC2(C)C1CC=C1C(=O)OCC1O (centres unmarked)	7.48 µM
C=C1CCC2C3(C)COC(c4cn(-c5ccccc5)nc4-c4cccc([N+](=O)[O-])c4)OC3CCC2(C)C1CC=C1C(=O)OCC1O (centres unmarked)	6.46 µM

###

Quick reference for CC50 among some compounds
- Test system: ACHN
- Condition details: read-out: 50% lethal concentration (LC50), Renal
Value kind: CC50 (µM)

Compound	Qualifier operator	Reading
C=C1CCC2C3(C)COC(c4cn(-c5ccccc5)nc4-c4ccccc4)OC3CCC2(C)C1CC=C1C(=O)OCC1O (stereo not shown)	=	5.67
C=C1CCC2C3(C)COC(c4cn(-c5ccccc5)nc4-c4cccc(Cl)c4)OC3CCC2(C)C1CC=C1C(=O)OCC1O (stereo not shown)	=	5.52
C=C1CCC2C3(C)COC(c4cn(-c5ccccc5)nc4-c4ccc(OC)cc4)OC3CCC2(C)C1CC=C1C(=O)OCC1O (stereo not shown)	=	5.41
C=C1CCC2C3(C)COC(c4cn(-c5ccccc5)nc4-c4ccc(F)cc4)OC3CCC2(C)C1CC=C1C(=O)OCC1O (stereo not shown)	=	5.82
C=C1CCC2C3(C)COC(c4cn(-c5ccccc5)nc4-c4cccc(F)c4)OC3CCC2(C)C1CC=C1C(=O)OCC1O (stereo not shown)	=	6.94
C=C1CCC2C3(C)COC(c4cn(-c5ccccc5)nc4-c4ccc(Br)cc4)OC3CCC2(C)C1CC=C1C(=O)OCC1O (stereo not shown)	>	100
C=C1CCC2C3(C)COC(c4cn(-c5ccccc5)nc4-c4ccc(Cl)cc4)OC3CCC2(C)C1CC=C1C(=O)OCC1O (stereo not shown)	=	8.23
C=C1CCC2C3(C)COC(c4cn(-c5ccccc5)nc4-c4cccc([N+](=O)[O-])c4)OC3CCC2(C)C1CC=C1C(=O)OCC1O (stereo not shown)	=	6.94
C=C1CCC2C3(C)COC(c4cn(-c5ccccc5)nc4-c4ccc(C)cc4)OC3CCC2(C)C1CC=C1C(=O)OCC1O (stereo not shown)	=	6.67
C=C1CCC2C3(C)COC(c4cn(-c5ccccc5)nc4-c4cccc(Br)c4)OC3CCC2(C)C1CC=C1C(=O)OCC1O (stereo not shown)	=	5.51

###

- Test system: 786-0
- Condition details: read-out: 50% lethal concentration (LC50); 786-0, Renal
Quick reference for CC50 among some compounds
Value kind: CC50 (µM)

Compound	Assayed system	Units	Reading
C=C1CCC2C3(C)COC(c4cn(-c5ccccc5)nc4-c4cccc(F)c4)OC3CCC2(C)C1CC=C1C(=O)OCC1O (centres unmarked)	786-0	µM	7.24
C=C1CCC2C3(C)COC(c4cn(-c5ccccc5)nc4-c4ccc(Cl)cc4)OC3CCC2(C)C1CC=C1C(=O)OCC1O (centres unmarked)	786-0	µM	8.7
C=C1CCC2C3(C)COC(c4cn(-c5ccccc5)nc4-c4ccc(F)cc4)OC3CCC2(C)C1CC=C1C(=O)OCC1O (centres unmarked)	786-0	µM	6.96
C=C1CCC2C3(C)COC(c4cn(-c5ccccc5)nc4-c4cccc(Cl)c4)OC3CCC2(C)C1CC=C1C(=O)OCC1O (centres unmarked)	786-0	µM	83.4
C=C1CCC2C3(C)COC(c4cn(-c5ccccc5)nc4-c4ccccc4)OC3CCC2(C)C1CC=C1C(=O)OCC1O (centres unmarked)	786-0	µM	9.83

###

- Tested on: SK-MEL-5
- Condition details: SK-MEL-5, Melanoma
Returns one of T or F; T when Total growth inhibition (TGI) is >= 3 µM.

Molecule	Qualitative label
C=C1CCC2C3(C)COC(c4cn(-c5ccccc5)nc4-c4cccc(Br)c4)OC3CCC2(C)C1CC=C1C(=O)OCC1O (stereo not shown) [1e]	F
C=C1CCC2C3(C)COC(c4cn(-c5ccccc5)nc4-c4ccc(OC)cc4)OC3CCC2(C)C1CC=C1C(=O)OCC1O (stereo not shown) [1j]	F
C=C1CCC2C3(C)COC(c4cn(-c5ccccc5)nc4-c4ccc(Cl)cc4)OC3CCC2(C)C1CC=C1C(=O)OCC1O (stereo not shown) [1g]	T
C=C1CCC2C3(C)COC(c4cn(-c5ccccc5)nc4-c4ccccc4)OC3CCC2(C)C1CC=C1C(=O)OCC1O (stereo not shown) [1a]	F

###

- Tested on: CAKI-1
- Condition details: read-out: 50% lethal concentration (LC50); CAKI-1, Renal
Quick reference for CC50 among some compounds

Compound	Qualifier operator	CC50 [µM]
C=C1CCC2C3(C)COC(c4cn(-c5ccccc5)nc4-c4cccc(F)c4)OC3CCC2(C)C1CC=C1C(=O)OCC1O (stereo not drawn)	=	6.13
C=C1CCC2C3(C)COC(c4cn(-c5ccccc5)nc4-c4ccc(F)cc4)OC3CCC2(C)C1CC=C1C(=O)OCC1O (stereo not drawn)	=	6.34
C=C1CCC2C3(C)COC(c4cn(-c5ccccc5)nc4-c4ccc(OC)cc4)OC3CCC2(C)C1CC=C1C(=O)OCC1O (stereo not drawn)	=	5.54
C=C1CCC2C3(C)COC(c4cn(-c5ccccc5)nc4-c4cccc(Br)c4)OC3CCC2(C)C1CC=C1C(=O)OCC1O (stereo not drawn)	=	6.04
C=C1CCC2C3(C)COC(c4cn(-c5ccccc5)nc4-c4cccc(Cl)c4)OC3CCC2(C)C1CC=C1C(=O)OCC1O (stereo not drawn)	=	5.39
C=C1CCC2C3(C)COC(c4cn(-c5ccccc5)nc4-c4ccc(Cl)cc4)OC3CCC2(C)C1CC=C1C(=O)OCC1O (stereo not drawn)	=	6.59
C=C1CCC2C3(C)COC(c4cn(-c5ccccc5)nc4-c4ccc(C)cc4)OC3CCC2(C)C1CC=C1C(=O)OCC1O (stereo not drawn)	=	6.64
C=C1CCC2C3(C)COC(c4cn(-c5ccccc5)nc4-c4ccc(Br)cc4)OC3CCC2(C)C1CC=C1C(=O)OCC1O (stereo not drawn)	=	7.69
C=C1CCC2C3(C)COC(c4cn(-c5ccccc5)nc4-c4cccc([N+](=O)[O-])c4)OC3CCC2(C)C1CC=C1C(=O)OCC1O (stereo not drawn)	>	100

###

- Test system: COLO 205
- Condition details: read-out: 50% lethal concentration (LC50); COLO 205, Colon
Value kind: CC50 (µM)

Molecule	Value kind	Units	Reading
C=C1CCC2C3(C)COC(c4cn(-c5ccccc5)nc4-c4ccccc4)OC3CCC2(C)C1CC=C1C(=O)OCC1O (centres unmarked)	CC50	µM	6.31
C=C1CCC2C3(C)COC(c4cn(-c5ccccc5)nc4-c4cccc([N+](=O)[O-])c4)OC3CCC2(C)C1CC=C1C(=O)OCC1O (centres unmarked)	CC50	µM	12.7

###

- Test system: RXF 393
- Condition details: read-out: 50% lethal concentration (LC50); RXF 393, Renal
Value kind: CC50 (µM)

Compound	Units	Reading
C=C1CCC2C3(C)COC(c4cn(-c5ccccc5)nc4-c4cccc(Br)c4)OC3CCC2(C)C1CC=C1C(=O)OCC1O (stereo not shown)	µM	5.51
C=C1CCC2C3(C)COC(c4cn(-c5ccccc5)nc4-c4cccc([N+](=O)[O-])c4)OC3CCC2(C)C1CC=C1C(=O)OCC1O (stereo not shown)	µM	6.32
C=C1CCC2C3(C)COC(c4cn(-c5ccccc5)nc4-c4cccc(F)c4)OC3CCC2(C)C1CC=C1C(=O)OCC1O (stereo not shown)	µM	5.94
C=C1CCC2C3(C)COC(c4cn(-c5ccccc5)nc4-c4ccc(Cl)cc4)OC3CCC2(C)C1CC=C1C(=O)OCC1O (stereo not shown)	µM	6.33
C=C1CCC2C3(C)COC(c4cn(-c5ccccc5)nc4-c4cccc(Cl)c4)OC3CCC2(C)C1CC=C1C(=O)OCC1O (stereo not shown)	µM	5.07
C=C1CCC2C3(C)COC(c4cn(-c5ccccc5)nc4-c4ccc(F)cc4)OC3CCC2(C)C1CC=C1C(=O)OCC1O (stereo not shown)	µM	5.78
C=C1CCC2C3(C)COC(c4cn(-c5ccccc5)nc4-c4ccc(OC)cc4)OC3CCC2(C)C1CC=C1C(=O)OCC1O (stereo not shown)	µM	4.98
C=C1CCC2C3(C)COC(c4cn(-c5ccccc5)nc4-c4ccc(Br)cc4)OC3CCC2(C)C1CC=C1C(=O)OCC1O (stereo not shown)	µM	6.11
C=C1CCC2C3(C)COC(c4cn(-c5ccccc5)nc4-c4ccc(C)cc4)OC3CCC2(C)C1CC=C1C(=O)OCC1O (stereo not shown)	µM	5.92
C=C1CCC2C3(C)COC(c4cn(-c5ccccc5)nc4-c4ccccc4)OC3CCC2(C)C1CC=C1C(=O)OCC1O (stereo not shown)	µM	5.76

###

- Tested on: SF-295
- Condition details: read-out: 50% lethal concentration (LC50); SF-295, CNS

Compound	Assayed system	CC50, µM
C=C1CCC2C3(C)COC(c4cn(-c5ccccc5)nc4-c4ccc(OC)cc4)OC3CCC2(C)C1CC=C1C(=O)OCC1O (stereo not shown) [1j]	SF-295	5.39
C=C1CCC2C3(C)COC(c4cn(-c5ccccc5)nc4-c4ccc(C)cc4)OC3CCC2(C)C1CC=C1C(=O)OCC1O (stereo not shown) [1i]	SF-295	5.54
C=C1CCC2C3(C)COC(c4cn(-c5ccccc5)nc4-c4cccc([N+](=O)[O-])c4)OC3CCC2(C)C1CC=C1C(=O)OCC1O (stereo not shown) [1b]	SF-295	6.05
C=C1CCC2C3(C)COC(c4cn(-c5ccccc5)nc4-c4ccc(F)cc4)OC3CCC2(C)C1CC=C1C(=O)OCC1O (stereo not shown) [1f]	SF-295	5.49
C=C1CCC2C3(C)COC(c4cn(-c5ccccc5)nc4-c4ccccc4)OC3CCC2(C)C1CC=C1C(=O)OCC1O (stereo not shown) [1a]	SF-295	5.67
C=C1CCC2C3(C)COC(c4cn(-c5ccccc5)nc4-c4cccc(F)c4)OC3CCC2(C)C1CC=C1C(=O)OCC1O (stereo not shown) [1c]	SF-295	5.49
C=C1CCC2C3(C)COC(c4cn(-c5ccccc5)nc4-c4ccc(Br)cc4)OC3CCC2(C)C1CC=C1C(=O)OCC1O (stereo not shown) [1h]	SF-295	5.57

Reference source for all entries: paper PMC12298351
